Every entry's value here was drawn from patent US20220048967A1.

Recorded measurements of hGLP1R cAMP EC50 ratio, one per entry
target: human GLP-1 receptor (GLP-1R) (human, UniProt P43220 24-463); assay: cell-based or functional assay; further: reference of the scale not given here

[
  {
    "BINDER": "YXEGTFTSDYSILLDKKAQRAFIEYLIEGGPSSGAPPPS (Aib2, (2-[2-(2-Amino-ethoxy)-ethoxy]-acetyl)2-(γ-Glu)-CO-(CH2)18-CO2H on K17, C-terminal NH2) [Example 257]",
    "hGLP1R cAMP EC50 ratio": 0.895
  },
  {
    "BINDER": "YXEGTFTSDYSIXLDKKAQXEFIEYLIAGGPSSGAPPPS (Aib2, αMeL13, (2-[2-(2-Amino-ethoxy)-ethoxy]-acetyl)2-(γ-Glu)-CO-(CH2)18-CO2H on K17, Aib20, C-terminal NH2) [Example 289]",
    "hGLP1R cAMP EC50 ratio": 1.33
  },
  {
    "BINDER": "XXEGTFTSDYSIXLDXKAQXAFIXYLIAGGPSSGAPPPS (D-Tyr1, Aib2, αMeL13, Orn16, (2-[2-(2-Amino-ethoxy)-ethoxy]-acetyl)2-(γ-Glu)-CO-(CH2)18-CO2H on K17, Aib20, D-Glu24, C-terminal NH2) [Example 291]",
    "hGLP1R cAMP EC50 ratio": 0.188
  },
  {
    "BINDER": "XXEGTFTSDYSIXLDXKAQXAFIEYLIAGGPSSGAPPPS (D-Tyr1, Aib2, αMeL13, Orn16, (2-[2-(2-Amino-ethoxy)-ethoxy]-acetyl)2-(γ-Glu)-CO-(CH2)18-CO2H on K17, Aib20, C-terminal NH2) [Example 346]",
    "hGLP1R cAMP EC50 ratio": 0.21
  },
  {
    "BINDER": "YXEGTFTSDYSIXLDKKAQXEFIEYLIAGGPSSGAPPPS (not fully specified; Aib2, αMeL13, (2-[2-(2-Amino-ethoxy)-ethoxy]-acetyl)-(γ-Glu)-CO-(CH2)18-CO2H on K17, Aib20, C-terminal NH2) [Example 339]",
    "hGLP1R cAMP EC50 ratio": 0.574
  },
  {
    "BINDER": "FXEGTFTSDYSIXLDKKAQXEFIEYLIAGGPSSGAPPPS (not fully specified; Aib2, αMeL13, (2-[2-(2-Amino-ethoxy)-ethoxy]-acetyl)2-(γ-Glu)-CO-(CH2)18-CO2H on K17, Aib20, C-terminal NH2) [Example 338]",
    "hGLP1R cAMP EC50 ratio": 0.262
  },
  {
    "BINDER": "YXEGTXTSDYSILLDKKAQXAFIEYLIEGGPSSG (Aib2, αMeF(2F)6, (2-[2-(2-Amino-ethoxy)-ethoxy]-acetyl)2-(γ-Glu)-CO-(CH2)16-CO2H on K17, Aib20, C-terminal NH2) [Example 302]",
    "hGLP1R cAMP EC50 ratio": 1.96
  },
  {
    "BINDER": "XXEGTFTSDYSIXLDEKAQXAFIEYLIAGGPSSGAPPPS (not fully specified; D-Tyr1, Aib2, αMeL13, (2-[2-(2-Amino-ethoxy)-ethoxy]-acetyl)2-(γ-Glu)-CO-(CH2)18-CO2H on K17, Aib20, C-terminal NH2) [Example 341]",
    "hGLP1R cAMP EC50 ratio": 0.0674
  },
  {
    "BINDER": "XXEGTFTSDYSIXLDKKAQXAFIEYLIAGGPSSGAPPPS (not fully specified; D-Tyr1, Aib2, αMeL13, (2-[2-(2-Amino-ethoxy)-ethoxy]-acetyl)2-(γ-Glu)-CO-(CH2)18-CO2H on K17, Aib20, C-terminal NH2) [Example 340]",
    "hGLP1R cAMP EC50 ratio": 0.183
  },
  {
    "BINDER": "YXEGTFTSDYSIXLDEKAQXAFIEYLIEGGPSSG (Aib2, αMeL13, (2-[2-(2-Amino-ethoxy)-ethoxy]-acetyl)2-(γ-Glu)-CO-(CH2)16-CO2H on K17, Aib20, C-terminal NH2) [Example 303]",
    "hGLP1R cAMP EC50 ratio": 0.602
  },
  {
    "BINDER": "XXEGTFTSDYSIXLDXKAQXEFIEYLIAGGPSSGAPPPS (D-Tyr1, Aib2, αMeL13, Orn16, (2-[2-(2-Amino-ethoxy)-ethoxy]-acetyl)2-(γ-Glu)-CO-(CH2)18-CO2H on K17, Aib20, C-terminal NH2) [Example 349]",
    "hGLP1R cAMP EC50 ratio": 0.214
  },
  {
    "BINDER": "YXEGTFTSDYSIXLDEKAQXDFIEYLIAGGPSSGAPPPS (Aib2, αMeL13, (2-[2-(2-Amino-ethoxy)-ethoxy]-acetyl)2-(γ-Glu)-CO-(CH2)18-CO2H on K17, Aib20, C-terminal NH2) [Example 344]",
    "hGLP1R cAMP EC50 ratio": 1.86
  },
  {
    "BINDER": "XXEGTFTSDYSIXLDKKAQXAFIXYLIEGGPSSGAPPPS (D-Tyr1, Aib2, αMeL13, (2-[2-(2-Amino-ethoxy)-ethoxy]-acetyl)2-(γ-Glu)-CO-(CH2)18-CO2H on K17, Aib20, D-Glu24, C-terminal NH2) [Example 356]",
    "hGLP1R cAMP EC50 ratio": 0.0647
  },
  {
    "BINDER": "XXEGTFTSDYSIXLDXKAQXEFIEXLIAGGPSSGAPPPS (D-Tyr1, Aib2, αMeL13, Orn16, (2-[2-(2-Amino-ethoxy)-ethoxy]-acetyl)2-(γ-Glu)-CO-(CH2)18-CO2H on K17, Aib20, αMeY25, C-terminal NH2) [Example 293]",
    "hGLP1R cAMP EC50 ratio": 0.197
  },
  {
    "BINDER": "YXEGTFTSDYSIXLDKKAQXEFIEYLIEGGPSSG (Aib2, αMeL13, (2-[2-(2-Amino-ethoxy)-ethoxy]-acetyl)2-(γ-Glu)-CO-(CH2)16-CO2H on K17, Aib20, C-terminal NH2) [Example 304]",
    "hGLP1R cAMP EC50 ratio": 0.481
  },
  {
    "BINDER": "YXEGTFTSDYSIXLDEKAQXAFIEYLIAGGPSSGAPPPS (Aib2, αMeL13, (2-[2-(2-Amino-ethoxy)-ethoxy]-acetyl)2-(γ-Glu)-CO-(CH2)18-CO2H on K17, Aib20, C-terminal NH2) [Example 332]",
    "hGLP1R cAMP EC50 ratio": 0.345
  },
  {
    "BINDER": "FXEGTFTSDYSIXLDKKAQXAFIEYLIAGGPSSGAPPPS (not fully specified; Aib2, αMeL13, (2-[2-(2-Amino-ethoxy)-ethoxy]-acetyl)2-(γ-Glu)-CO-(CH2)18-CO2H on K17, Aib20, C-terminal NH2) [Example 337]",
    "hGLP1R cAMP EC50 ratio": 0.265
  }
]
